Hello, the source for this data is ChEMBL document CHEMBL1122781, in case you need it.

- Tested on: Rattus norvegicus
- Assay text: Oral dose necessary to produce excretion of 2 mequiv of Na+/kg in rat urine in a 4-hr period after oral administration; inactive
- Format: ADME, organism-based
- Condition summary: in vivo
Outcome measure: ED2

For orientation, consider the following solved cases.
> print(dat)
                  compound.structure.string  recorded.result
1  CCOC(=O)COc1ccc(C(=O)c2ccc(O)c(CO)c2)c(Cl)c1Cl       Not Active
2  CCOC(=O)COc1ccc(C(=O)c2ccc(O)c(C(N)=O)c2)c(Cl)c1Cl       Not Active
3  Br.CCOC(=O)COc1ccc(C(=O)c2ccc(CN)c(O)c2)c(Cl)c1Cl       Not Active
4  CCOC(=O)COc1ccc(C(=O)c2ccc(O)c(CN(CC)CC)c2)c(Cl)c1Cl.Cl       Not Active

Query compound follows.
Inquiry: Would you kindly share the measured ED2 for `CCOC(=O)COc1ccc(C(=O)c2ccc(CN)c(OC)c2)c(Cl)c1Cl.Cl` ?
Reply text: Not Active
